experiment: Toxicity liver stage against HepG2, at 10uM; assay type: cell-based; set-up: test concentration 10 uM, cell line HepG2-A16-CD81EGFP; conditions: human, HepG2-A16-CD81EGFP cells; read-out: INHIBITION
So I've got a bunch of compounds here, and I need their cytotoxicity at 10 µM values.

Completed entries (count: 3):
> print(dat)
                                   compound  observed
1  COCc1cc(CNC(=O)c2c(C)cc(C)[nH]c2=O)n[nH]1    -4.69%
2  O=C(c1ccc(C2CCCN2)s1)N1CCC2(CCCO2)CC1 (stereo unspecified)    -7.13%
3  Cn1cccc1C(=O)Nc1cc(F)ccc1OCC1CCCO1 (stereo unspecified)    -7.59%

Hey, quick one: what's cytotoxicity at 10 µM for each of these?
1. Cc1ccc2nc(C3CCCN3Cc3cccc(CCN)c3)[nH]c2c1 (stereo unspecified)
2. Fc1cccc(-c2nc(CN3CCCC(Cn4cncn4)C3)co2)c1 (stereo unspecified)
3. NC(=O)CN(Cc1ncc(-c2ccc(F)cc2)o1)C1CCCC1

Result ::
["-7.01%", "-12.5%", "-6.19%"]

* * *

test: Toxicity liver stage against HepG2, at 10uM; format: cell-based; set-up: test concentration 10 uM, cell line HepG2-A16-CD81EGFP; conditions: human, HepG2-A16-CD81EGFP cells; read-out: INHIBITION
QUANTITY_MEASURED: cytotoxicity at 10 µM (%)
One number for each entry, in %.

Completed entries (count: 6):
> print(dat)
                                   compound      quantity.measured  readout.unit  observed
1  CC(Cn1cccn1)C(=O)N1CCC(NS(C)(=O)=O)CC1 (configuration not stated)  cytotoxicity at 10 µM             %     -8.34
2  Cc1ncc(-c2ccnc(N3CCN(C)CC3)n2)c(-c2cccnc2)n1  cytotoxicity at 10 µM             %      4.36
3  CCOc1ccccc1C(=O)N1CCCC1c1ncc2c(n1)CCNC2 (configuration not stated)  cytotoxicity at 10 µM             %       8.3
4    Cc1cc(NC(=O)N(Cc2ccc(C#N)cc2)C(C)C)no1  cytotoxicity at 10 µM             %       -17
5  COc1ccc(C[C@H]2CN(C(=O)c3ccncc3)CC[C@@H]2OC)cc1  cytotoxicity at 10 µM             %      5.75
6      COc1ccccc1OC1CCN(C(=O)CCCn2ccnc2)CC1  cytotoxicity at 10 µM             %      -183

Hey, quick one: what's cytotoxicity at 10 µM for each of these?
1. O=C(CC1NC(N2CCc3ccccc3C2)=NC1=O)Nc1ccccc1 (configuration not stated)
2. Cn1cc(CNC2CCOCC2)c(-c2cc3ccccc3o2)n1
3. c1ccc2c3c([nH]c2c1)C(c1nn[nH]n1)CCC3 (configuration not stated)
4. Cc1cc(C)c(CNC(=O)C(C)Oc2ccccc2C#N)c(=O)[nH]1 (configuration not stated)
5. O=S(=O)(Cc1ccccc1)NCc1ccco1

Result ::
[2.96, -45.1, -7.23, 4.59, 0.0906]

Query :: Entry O=C(Nc1ccccc1F)N(CCO)Cc1ccsc1 : reported cytotoxicity at 10 µM = ?
Result :: 2.05
